Every entry's value here was drawn from patent US11795460B2.

This section presents molecules with their documented Avg % Insert values.
tested on: TTR; test: TTR editing in primary human hepatocytes transfected with Spy Cas9 mRNA and sgRNAs (Table 13); assay type: cell-based; conditions: primary human hepatocytes co-transfected with Spy Cas9 mRNA (SEQ ID NO:2) and sgRNAs, 12.5 nM
Strand notation (5' to 3'): a small letter for the sugar, then the base; units joined by * are phosphorothioate-linked, units joined directly phosphodiester-linked; [ ] holds rarer units or linkages, { } end groups; capitals alone tell only the bases. m = 2'-O-methyl; r = 2'-OH (RNA)
READOUT_KIND: Avg % Insert (%)

MOLECULE: G000567: TTR sgRNA modified sequence, Human, SEQ ID No. 109; guide sequence of CR003352 (nucleic acid) guide: mG*mA*mA*rArGrGrCrUrGrCrUrGrArUrGrArCrArCrCrGrUrUrUrUrArGrAmGmCmUmAmGmAmAmAmUmAmGmCrArArGrUrUrArArArArUrArArGrGrCrUrArGrUrCrCrGrUrUrArUrCrAmAmCmUmUmGmAmAmAmAmAmGmUmGmGmCmAmCmCmGmAmGmUmCmGmGmUmGmCmU*mU*mU*mU
READOUT_KIND: Avg % Insert
UNITS_SYMBOL: %
READING: 17.35
--
MOLECULE: G000493: TTR sgRNA modified sequence, Human, SEQ ID No. 100; guide sequence of CR003368 (nucleic acid) guide: mA*mA*mG*rUrGrCrCrUrUrCrCrArGrUrArArGrArUrUrGrUrUrUrUrArGrAmGmCmUmAmGmAmAmAmUmAmGmCrArArGrUrUrArArArArUrArArGrGrCrUrArGrUrCrCrGrUrUrArUrCrAmAmCmUmUmGmAmAmAmAmAmGmUmGmGmCmAmCmCmGmAmGmUmCmGmGmUmGmCmU*mU*mU*mU
READOUT_KIND: Avg % Insert
UNITS_SYMBOL: %
READING: 10.65
--
MOLECULE: G000570: TTR sgRNA modified sequence, Human, SEQ ID No. 111; guide sequence of CR003347 (nucleic acid) guide: mC*mA*mU*rUrGrArUrGrGrCrArGrGrArCrUrGrCrCrUrGrUrUrUrUrArGrAmGmCmUmAmGmAmAmAmUmAmGmCrArArGrUrUrArArArArUrArArGrGrCrUrArGrUrCrCrGrUrUrArUrCrAmAmCmUmUmGmAmAmAmAmAmGmUmGmGmCmAmCmCmGmAmGmUmCmGmGmUmGmCmU*mU*mU*mU
READOUT_KIND: Avg % Insert
UNITS_SYMBOL: %
READING: 68.08
